ASSAY_SYSTEM: T1, Human SIRPα v2 (human)
T1 construct: also called human SIRPα v2 (antigen of the Biacore assay)
TEST_NAME: SPR (Biacore), 1:1 binding model
VALUE_KIND: koff (s⁻¹)
Reply with just the number (in s⁻¹).

# BINDER, koff [s⁻¹]
data = [
    ("Humanized anti-SIRPα antibody hu025.023 (antibody, V domains shown, Humanized from C25) VH: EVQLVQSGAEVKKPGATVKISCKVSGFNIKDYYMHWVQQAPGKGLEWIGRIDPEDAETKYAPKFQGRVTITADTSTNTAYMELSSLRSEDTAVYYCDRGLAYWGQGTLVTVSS VL: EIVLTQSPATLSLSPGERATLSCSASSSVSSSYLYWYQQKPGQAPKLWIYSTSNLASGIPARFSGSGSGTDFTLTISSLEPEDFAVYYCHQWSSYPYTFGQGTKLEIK", 0.00492),
    ("Humanized anti-SIRPα antibody hu025.021 (antibody, V domains shown, Humanized from C25) VH: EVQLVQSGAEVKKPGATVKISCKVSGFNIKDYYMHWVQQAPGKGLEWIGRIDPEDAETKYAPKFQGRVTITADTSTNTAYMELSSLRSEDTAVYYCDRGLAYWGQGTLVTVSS VL: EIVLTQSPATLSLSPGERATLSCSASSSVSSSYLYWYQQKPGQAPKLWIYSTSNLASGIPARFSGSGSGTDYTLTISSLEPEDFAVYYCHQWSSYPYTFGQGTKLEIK", 0.0056),
    ("Anti-SIRPα antibody C25 (antibody, V domains shown, Mouse variable regions; also called 025c; 025) VH: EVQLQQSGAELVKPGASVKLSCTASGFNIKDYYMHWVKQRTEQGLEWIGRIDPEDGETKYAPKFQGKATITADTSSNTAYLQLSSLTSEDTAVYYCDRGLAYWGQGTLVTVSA VL: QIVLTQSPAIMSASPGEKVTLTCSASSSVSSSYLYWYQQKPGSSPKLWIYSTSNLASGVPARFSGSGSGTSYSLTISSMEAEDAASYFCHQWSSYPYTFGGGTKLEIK", 0.00254),
    ("Humanized anti-SIRPα antibody hu025.060 (antibody, V domains shown, Humanized from C25) VH: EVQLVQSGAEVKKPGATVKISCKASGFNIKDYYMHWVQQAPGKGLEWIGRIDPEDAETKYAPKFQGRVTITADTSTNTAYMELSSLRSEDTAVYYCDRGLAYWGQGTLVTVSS VL: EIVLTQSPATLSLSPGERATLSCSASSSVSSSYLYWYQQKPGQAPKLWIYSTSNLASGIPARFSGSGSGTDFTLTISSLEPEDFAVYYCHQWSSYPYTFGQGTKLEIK", 0.00344),
]

# context switch: different binder, same koff
INPUT: Entry Humanized anti-SIRPα antibody hu025.059 (antibody, V domains shown, Humanized from C25) VH: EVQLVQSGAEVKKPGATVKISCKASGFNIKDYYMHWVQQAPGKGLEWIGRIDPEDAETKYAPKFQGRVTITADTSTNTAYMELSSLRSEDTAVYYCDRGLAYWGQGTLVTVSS VL: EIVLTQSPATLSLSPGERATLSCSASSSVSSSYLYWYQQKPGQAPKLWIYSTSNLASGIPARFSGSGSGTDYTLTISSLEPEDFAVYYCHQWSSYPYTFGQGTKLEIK : reported koff = ?
OUTPUT: 0.00392
